assay: qHTS assay to identify small molecule antagonists of the estrogen receptor alpha (ER-alpha) signaling pathway - cell viability counter screen (AID 743074); settings: ERalpha-bla HEK293 viability, CellTiter-Glo luminescence, 18 h; series mostly up to 69.4 µM;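 also: HEK293 cells carrying ER-alpha-UAS-bla reporter stimulated with 17beta-estradiol; nearly all actives have a fitted effect of over 45% in size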
Results filed as inconclusive are left out. Active and inactive are the calls of the source. Calls follow the shape of the full dose curve.
Form entry, call: pick from TRUE for active, FALSE for inactive

// known answers, use as guide
[[record]]
compound = "CC1(C)CCC(C)(C)c2cc(C(=O)Nc3ccc(C(=O)O)cc3)ccc21"
label = "FALSE"

[[record]]
compound = "O=C1c2ccccc2Cc2ccccc21"
label = "FALSE"

[[record]]
compound = "CO[Si](CCCNc1ccccc1)(OC)OC"
label = "FALSE"

[[record]]
compound = "CCCCN(CCCC)c1ccc(C(=O)c2ccccc2C(=O)O)c(O)c1"
label = "TRUE"

[[record]]
compound = "ON=C1CCCC1"
label = "FALSE"


Challenge: I'd appreciate the recorded outcome for `CCCCCCCCCCCCc1ccc(O)cc1` from this test.
Response given: TRUE

Challenge: I'd appreciate the recorded outcome for `N=C1N=C(N)c2ccccc21` from this test.
Response given: FALSE

Challenge: I'd appreciate the recorded outcome for Cc1nc(-c2ccc3c(c2)CCN(CCC2CCC(NC(=O)/C=C/c4ccc(F)cc4)CC2)CC3)no1 (configuration not stated) from this test.
Response given: FALSE

Challenge: I'd appreciate the recorded outcome for `O=c1[nH]cnc2nc[nH]c12` from this test.
Response given: FALSE

Challenge: I'd appreciate the recorded outcome for `O=[N+]([O-])c1cc(Cl)c(Cl)c(Cl)c1Cl` from this test.
Response given: FALSE

---

experiment: qHTS RealTime-Glo MT Cell Viability Assay in HepG2 cells - 8 hour (AID 1224873); conditions: RealTime-Glo luminescence; series mostly up to 76.8 µM; also: nearly all actives have a fitted effect of over 55% in size
Records with an inconclusive call do not appear. Active and inactive are the calls of the source. Calls come from the whole dose curve; as a rule, active = well fitted cell-killing curve with a large enough effect in the repeat runs; inconclusive = weak or mixed curves; inactive = flat fitted curve, though single readings scatter.
Form entry, call: pick from 1 (active), 0 (inactive)

[[record]]
compound = "O=c1[nH]cnc2nc[nH]c12"
label = 0

[[record]]
compound = "Oc1cccc2cc3cccc(O)c3c(O)c12"
label = 0

[[record]]
compound = "O=C1c2ccccc2Cc2ccccc21"
label = 0

[[record]]
compound = "COC(=O)c1cc(Cl)ccc1OC"
label = 0


Challenge: I'd appreciate the recorded outcome for `CC(C)C(C)(C)C(C)(C)C(C)(C)S` from this test.
Response given: 0

Challenge: I'd appreciate the recorded outcome for CCCCCCCCCCCCCC[P+](CCCC)(CCCC)CCCC (tested in a mixture with another compound) from this test.
Response given: 1

Challenge: I'd appreciate the recorded outcome for `OCCCCCCCCCCCCBr` from this test.
Response given: 0

Challenge: I'd appreciate the recorded outcome for `CCC(CN)=C(c1ccccc1)c1ccccc1` from this test.
Response given: 0

Challenge: I'd appreciate the recorded outcome for `CCCCCCCCn1sc(Cl)c(Cl)c1=O` from this test.
Response given: 1

---

assay: A CellTox Green Cytotoxicity Assay to monitor cytotoxicity in HepG2 cells - 24 hour (AID 1224878); conditions: CellTox Green fluorescence; series mostly up to 76.8 µM; also: nearly all actives have a fitted effect of over 45% in size; also: potency is read from the fitted curve at half-maximal effect
Records with an inconclusive call do not appear. The source made the active and inactive calls. Calls come from the whole dose curve; as a rule, active = well fitted activation curve with a large enough effect in the repeat runs; inconclusive = weak or mixed curves; inactive = flat fitted curve, though single readings scatter.
endpoint_label: Potency

[[record]]
molecule = "Cc1oc(-c2ccccc2)nc1CCC(=O)c1ccc(CC2SC(=O)NC2=O)cc1 (stereo not given)"
value_reported = "inactive"

[[record]]
molecule = "NC(=O)CC[C@@H]1NC(=O)[C@H](Cc2ccccc2)NC(=O)[C@H](Cc2ccc(O)cc2)NC(=O)CCSSC[C@@H](C(=O)N2CCC[C@H]2C(=O)N[C@@H](CCCN=C(N)N)C(=O)NCC(N)=O)NC(=O)[C@H](CC(N)=O)NC1=O"
value_reported = "inactive"

[[record]]
molecule = "CCCCc1oc2ccc(NS(C)(=O)=O)cc2c1C(=O)c1ccc(OCCCN(CCCC)CCCC)cc1"
value_reported = "19 µM (active)"

[[record]]
molecule = "CN(C/C=C/C#CC(C)(C)C)Cc1cccc2ccccc12"
value_reported = "inactive"


Then there is this molecule:
Per the record, `CNCc1cc(F)ccc1Oc1ccc(Cl)c(Cl)c1` has Potency of 49 µM (active)
